Could you please report measured IC50 for the items listed next?
- target_or_test_system: IMP-1 (Serratia marcescens)
- Sequence (P52699 whole entry, looked up, species assumed): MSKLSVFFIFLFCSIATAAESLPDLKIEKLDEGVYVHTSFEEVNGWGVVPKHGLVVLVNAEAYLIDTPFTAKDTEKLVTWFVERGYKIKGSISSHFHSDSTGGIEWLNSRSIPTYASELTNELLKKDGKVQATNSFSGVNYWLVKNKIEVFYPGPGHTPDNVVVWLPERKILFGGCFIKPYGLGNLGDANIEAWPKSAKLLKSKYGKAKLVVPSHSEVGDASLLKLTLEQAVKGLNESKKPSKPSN
- procedure_text: biochemical
- Assay type: biochemical
- assay_context: CCF2-FA substrate, 2 hours at 25° C; read-out: IMP-1 IC50
The figure you give is taken to be in nM; do not add the unit.

Prompt: Give the reported IC50 for this compound. Cc1n[nH]c2ccc(-c3ccc(S(=O)(=O)C4CNC4)c(S(N)(=O)=O)c3-c3nnn[nH]3)cc12.O=C(O)C(F)(F)F [Example 126, 2,2,2-trifluoroacetate]
Response: 0.715

Prompt: Give the reported IC50 for this compound. NS(=O)(=O)c1c(S(=O)(=O)C2CNC2)ccc(-c2cnc3ccoc3c2)c1-c1nnn[nH]1.O=C(O)C(F)(F)F [Example 101, 2,2,2-trifluoroacetate]
Response: 1.48

Prompt: Give the reported IC50 for this compound. CS(=O)(=O)Nc1nc2c(-c3ccc(S(=O)(=O)C4CCNCC4)c(S(N)(=O)=O)c3-c3nn[nH]n3)cccc2s1
Response: 0.239

Prompt: Give the reported IC50 for this compound. Nc1nc2c(-c3ccc(S(=O)(=O)C4CNC4)c(S(N)(=O)=O)c3-c3nn[nH]n3)cccc2o1
Response: 0.585

Prompt: Give the reported IC50 for this compound. NS(=O)(=O)c1c(S(=O)(=O)C2CNC2)ccc(-c2cccc3cccnc23)c1-c1nnn[nH]1.O=C(O)C(F)(F)F [Example 128, 2,2,2-trifluoroacetate]
Response: 0.524

Prompt: Give the reported IC50 for this compound. Cc1cc(-c2ccc(S(=O)(=O)CCN)c(S(N)(=O)=O)c2-c2nnn[nH]2)cnc1N.O=C(O)C(F)(F)F [Example 172, 2,2,2-trifluoroacetate]
Response: 4.9

Prompt: Give the reported IC50 for this compound. NCCS(=O)(=O)c1ccc(-c2ccc(CO)nc2)c(-c2nnn[nH]2)c1S(N)(=O)=O.O=C(O)C(F)(F)F [Example 145, 2,2,2-trifluoroacetate]
Response: 4.84

Prompt: Give the reported IC50 for this compound. Cn1cc2cc(-c3ccc(S(=O)(=O)CCN)c(S(N)(=O)=O)c3-c3nnn[nH]3)ccc2n1.O=C(O)C(F)(F)F [Example 153, 2,2,2-trifluoroacetate]
Response: 0.457

Prompt: Give the reported IC50 for this compound. NS(=O)(=O)c1c(S(=O)(=O)C2CNC2)ccc(-c2ccc3scnc3c2)c1-c1nnn[nH]1.O=C(O)C(F)(F)F [Example 114, 2,2,2-trifluoroacetate]
Response: 0.261

Prompt: Give the reported IC50 for this compound. Cn1ncc2c(-c3ccc(S(=O)(=O)C4CNC4)c(S(N)(=O)=O)c3-c3nnn[nH]3)cccc21.O=C(O)C(F)(F)F [Example 123, 2,2,2-trifluoroacetate]
Response: 1.14

Prompt: Give the reported IC50 for this compound. NCCS(=O)(=O)c1ccc(-c2ccc3cccnc3c2)c(-c2nnn[nH]2)c1S(N)(=O)=O.O=C(O)C(F)(F)F [Example 159, 2,2,2-trifluoroacetate]
Response: 0.487

Prompt: Give the reported IC50 for this compound. Cc1ccc(-c2ccc(S(=O)(=O)C3CNC3)c(S(N)(=O)=O)c2-c2nn[nH]n2)c2nc(N)[nH]c12
Response: 0.613

Prompt: Give the reported IC50 for this compound. NCCS(=O)(=O)c1ccc(-c2cccc3cc(C(N)=O)[nH]c23)c(-c2nn[nH]n2)c1S(N)(=O)=O
Response: 0.146

Prompt: Give the reported IC50 for this compound. Nc1ccc2c(-c3ccc(S(=O)(=O)C4CNC4)c(S(N)(=O)=O)c3-c3nnn[nH]3)ccnc2n1
Response: 1.75

Prompt: Give the reported IC50 for this compound. N#Cc1ccc(-c2ccc(S(=O)(=O)CCN)c(S(N)(=O)=O)c2-c2nnn[nH]2)cn1.O=C(O)C(F)(F)F [Example 144, 2,2,2-trifluoroacetate]
Response: 5.59

Prompt: Give the reported IC50 for this compound. NCc1nc2c(-c3ccc(S(=O)(=O)C[C@H](O)CN)c(S(N)(=O)=O)c3-c3nn[nH]n3)cccc2[nH]1
Response: 1.25

Prompt: Give the reported IC50 for this compound. NS(=O)(=O)c1cccc(-c2ccc(S(=O)(=O)C3CNC3)c(S(N)(=O)=O)c2-c2nn[nH]n2)c1
Response: 3.24

Prompt: Give the reported IC50 for this compound. NS(=O)(=O)c1c(S(=O)(=O)C2CNC2)ccc(-c2cnc3ccccc3c2)c1-c1nnn[nH]1.O=C(O)C(F)(F)F [Example 98, 2,2,2-trifluoroacetate]
Response: 1.97

Prompt: Give the reported IC50 for this compound. NCCS(=O)(=O)c1ccc(-c2cccc(S(=O)(=O)NC3CC3)c2)c(-c2nnn[nH]2)c1S(N)(=O)=O.O=C(O)C(F)(F)F [Example 161, 2,2,2-trifluoroacetate]
Response: 1.69

Prompt: Give the reported IC50 for this compound. Nc1nc2c(-c3ccc(S(=O)(=O)[C@H]4CN[C@H](CO)C4)c(S(N)(=O)=O)c3-c3nn[nH]n3)cccc2[nH]1
Response: 0.959

Prompt: Give the reported IC50 for this compound. Nc1nc2cccc(-c3ccc(S(=O)(=O)[C@@H]4CCNC4)c(S(N)(=O)=O)c3-c3nn[nH]n3)c2[nH]1
Response: 0.807

Prompt: Give the reported IC50 for this compound. NCCCS(=O)(=O)c1ccc(-c2cccc3[nH]cnc23)c(-c2nn[nH]n2)c1S(N)(=O)=O
Response: 0.275

Prompt: Give the reported IC50 for this compound. NS(=O)(=O)c1c(S(=O)(=O)C2CNC2)ccc(-c2cnn3c2CCCC3)c1-c1nnn[nH]1.O=C(O)C(F)(F)F [Example 129, 2,2,2-trifluoroacetate]
Response: 2.63

Prompt: Give the reported IC50 for this compound. NS(=O)(=O)c1c(S(=O)(=O)C2CNC2)ccc(-c2cccc3sc(O)nc23)c1-c1nn[nH]n1
Response: 0.256

---

- System: P. aeruginosa expressing IMP-1, efflux+ (MB9798)
- Assay type: cell-based, Pseudomonas aeruginosa
- assay_context: ratio MITC95 PA_9798/MITC95 PA_9799
quantity_kind: Efflux ratio

Prompt: Give the reported Efflux ratio for this molecule. NCCS(=O)(=O)c1ccc(-c2cccc3cn[nH]c23)c(-c2nnn[nH]2)c1S(N)(=O)=O.O=C(O)C(F)(F)F
Response: 2.00

Prompt: Give the reported Efflux ratio for this molecule. COC(=O)CNC(=O)c1nc2c(-c3ccc(S(=O)(=O)C4CNC4)c(S(N)(=O)=O)c3-c3nn[nH]n3)cccc2[nH]1
Response: 1.00

Prompt: Give the reported Efflux ratio for this molecule. Nc1ncccc1-c1ccc(S(=O)(=O)C2CNC2)c(S(N)(=O)=O)c1-c1nn[nH]n1
Response: 4.88

Prompt: Give the reported Efflux ratio for this molecule. NCCS(=O)(=O)c1ccc(-c2cccc3cc(C(N)=O)[nH]c23)c(-c2nn[nH]n2)c1S(N)(=O)=O
Response: 1.00

---

- target_or_test_system: UniProt:P52699
- procedure_text: biochemical
- Type: biochemical
- assay_context: CCF2-FA substrate, 2 hours at 25° C; read-out: IMP-1 IC50
quantity_kind: log10 of IC50 (log10 of the value in nM)
Each number you see is log10 of IC50, and the unit inside the log is nM.

Prompt: Give the reported log10 of IC50 for this compound. NS(=O)(=O)c1c(S(=O)(=O)C2CNC2)ccc(C2CCOCC2)c1-c1nn[nH]n1
Response: 0.63

Prompt: Give the reported log10 of IC50 for this compound. CS(=O)(=O)c1ccc(-c2cnc3ccccn23)c(-c2nn[nH]n2)c1S(N)(=O)=O
Response: -0.48

Prompt: Give the reported log10 of IC50 for this compound. NC[C@@H](N)CS(=O)(=O)c1ccc(-c2ccc(N)nc2)c(-c2nn[nH]n2)c1S(N)(=O)=O
Response: 0.14

Prompt: Give the reported log10 of IC50 for this compound. CS(=O)(=O)c1ccc(-c2cccc3cn[nH]c23)c(-c2nn[nH]n2)c1S(N)(=O)=O
Response: -0.68

Prompt: Give the reported log10 of IC50 for this compound. NCCS(=O)(=O)c1ccc(-c2ccnc3c2CCCC3)c(-c2nn[nH]n2)c1S(N)(=O)=O
Response: -0.16

Prompt: Give the reported log10 of IC50 for this compound. NCCS(=O)(=O)c1ccc(-c2cccc(NC(=O)CN)c2)c(-c2nn[nH]n2)c1S(N)(=O)=O
Response: 1.01

Prompt: Give the reported log10 of IC50 for this compound. CCCn1c(N)nc2c(-c3ccc(S(=O)(=O)C4CNC4)c(S(N)(=O)=O)c3-c3nn[nH]n3)cccc21
Response: -0.52

Prompt: Give the reported log10 of IC50 for this compound. NS(=O)(=O)c1c(S(=O)(=O)C2CNC2)ccc(-c2cccn3cc(C(=O)O)nc23)c1-c1nnn[nH]1
Response: 0.35

Prompt: Give the reported log10 of IC50 for this compound. NS(=O)(=O)c1c(S(=O)(=O)C2CNC2)ccc(-c2csc(N3CCCC3)n2)c1-c1nnn[nH]1.O=C(O)C(F)(F)F [Example 120, 2,2,2-trifluoroacetate]
Response: -0.26

Prompt: Give the reported log10 of IC50 for this compound. NCCS(=O)(=O)c1ccc(-c2cccc3[nH]c(=O)[nH]c23)c(-c2nnn[nH]2)c1S(N)(=O)=O.O=C(O)C(F)(F)F [Example 150, 2,2,2-trifluoroacetate]
Response: -0.03

Prompt: Give the reported log10 of IC50 for this compound. Nc1nc2c(-c3ccc(SC4CNC4)c(S(N)(=O)=O)c3-c3nn[nH]n3)cccc2[nH]1
Response: 1.88

Prompt: Give the reported log10 of IC50 for this compound. C[C@@H](N)CS(=O)(=O)c1ccc(-c2cccc3c2nc(N)n3C)c(-c2nn[nH]n2)c1S(N)(=O)=O
Response: -0.08

Prompt: Give the reported log10 of IC50 for this compound. Cn1c(N)nc2c(-c3ccc(S(=O)(=O)C4CNC4)c(S(N)(=O)=O)c3-c3nn[nH]n3)cccc21
Response: -0.36

Prompt: Give the reported log10 of IC50 for this compound. N[C@@H](CO)CS(=O)(=O)c1ccc(-c2cccc3[nH]cnc23)c(-c2nn[nH]n2)c1S(N)(=O)=O
Response: -0.53
